assay: fission yeast growth modulation, primary screen, strain 972, OD600, 24 h, no modulator (AID 1090);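 also: basal condition with compound alone and no growth modifier present; test concentration not given here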; details: S. pombe 972 growth, higher = more signal, called active from +8 up or from −8 down
Property: z-score; scope: individual molecules
Answer with a number only.

molecule: COC(=O)[C@@]1(Cc2ccc(OC)cc2)[C@H]2c3cc(C(=O)N(C)C)n(Cc4c(OC)[nH]cc(C)c4=O)c3C[C@H]2CN1C(=O)c1ccccc1
z-score: 0.349
--
molecule: COCCOC(=O)N1C(=O)[C@@]2(c3cc(C#CC4(O)CCCCCC4)ccc31)[C@H](C(=O)N1CCCCCCC1)[C@H]1C(=O)O[C@H](c3ccccc3)[C@H](c3ccccc3)N1[C@@H]2c1ccccc1OCCO
z-score: -1.07
--
molecule: O=C(CS)NCCCCCCNC(=O)[C@H]1C[C@H]2C(=O)N3CCC[C@H]3C(=O)N2[C@H]1c1cccc(OCCO)c1
z-score: -0.26
--
molecule: O=C1O[C@H](c2ccccc2)[C@H](c2ccccc2)N2[C@H]1[C@@H](C(=O)Nc1nc3ccccc3s1)[C@]1(C(=O)Nc3ccccc31)[C@H]2c1ccc(O)cc1
z-score: -0.0898
--
molecule: CC(C)(C)OC(=O)CC[C@]1(C(=O)N2CCCCC2)N=C(c2ccc(OCCCO)cc2)O[C@H]1c1ccccc1N=[N+]=[N-]
z-score: 0.402
--
molecule: CCCCC(CC)C(O)C1C=CC2C(=O)N(c3ccccc3)C(=O)C2N1Nc1ccccc1 (stereo not drawn)
z-score: 0.645
--
molecule: CCOC(=O)C[C@H]1[C@H](OC(=O)c2ccc(C(=O)c3ccccc3)cc2)[C@@H](NC(=O)C2CCCCC2)c2cc(OCCCO)ccc2N1C(=O)c1ccccc1
z-score: 0.358
--
molecule: [N-]=[N+]=NCc1ccccc1C[C@@]1(C(=O)N2CCOCC2)N=C(c2ccc(OCCCO)cc2)O[C@@H]1c1ccccc1CN=[N+]=[N-]
z-score: -0.559

*Q* Which value of z-score has been reported for COc1ccc([Si](C)(C)[C@H]2[C@H](CCn3cc(CCO)nn3)O[C@@]3(C(=O)N(Cc4ccc(N5CCOC5=O)cc4)c4ccccc43)[C@@H]2C)cc1 in the records?
*A* 0.928

*Q* Which value of z-score has been reported for COc1ccc([Si](C)(C)[C@@H]2[C@@H](CC(=O)N(CCO)Cc3ccccc3)O[C@]3(C(=O)N(C)c4ccccc43)[C@H]2C)cc1 in the records?
*A* 0.14

*Q* Which value of z-score has been reported for COc1ccc(C(=O)Nc2cccc(CN3C(=O)[C@]4(O[C@H](CC(=O)N5CCC[C@H]5CO)[C@@H]([Si](C)(C)c5ccc(OC)cc5)[C@@H]4C)c4ccccc43)c2)cc1 in the records?
*A* -0.22

*Q* Which value of z-score has been reported for C=C(CCCC)/C(=C/C[C@H](OC(C)=O)c1ccc(CO)o1)c1cnc2ccccc2c1 in the records?
*A* -0.923

*Q* Which value of z-score has been reported for C=C[C@@H](COC(C)=O)N(Cc1ccccc1[N+](=O)[O-])S(=O)(=O)c1ccc(Br)cc1 in the records?
*A* -2.76
